Where these numbers come from: BigSolDB 2.1

- CONDITION NOTES: in 2-butanone, 308.15 K
READOUT NAME: solubility (mole fraction)
Lab note: jot down the number only; don't add units.

Problem: Supply measured solubility (mole fraction) of CC1=NN(c2ccccc2)C(=O)C1 in your reply.
Result: 0.0557

---

- CONDITION NOTES: in dimethyl carbonate, 303.15 K
READOUT NAME: solubility (mole fraction)
Lab note: jot down the number only; don't add units.

Problem: Supply measured solubility (mole fraction) of CC1=NN(c2ccccc2)C(=O)C1 in your reply.
Result: 0.0257

---

- CONDITION NOTES: in isopropyl acetate, 288.15 K
READOUT NAME: solubility (mole fraction)
Lab note: jot down the number only; don't add units.

Problem: Supply measured solubility (mole fraction) of CC1=NN(c2ccccc2)C(=O)C1 in your reply.
Result: 0.0117

---

- CONDITION NOTES: in n-propyl acetate, 283.15 K
READOUT NAME: solubility (mole fraction)

Problem: Supply measured solubility (mole fraction) of CC1=NN(c2ccccc2)C(=O)C1 in your reply.
Result: 0.0142

---

- CONDITION NOTES: in isopropyl acetate, 303.15 K
READOUT NAME: solubility (mole fraction)

Problem: Supply measured solubility (mole fraction) of CC1=NN(c2ccccc2)C(=O)C1 in your reply.
Result: 0.0187

---

- CONDITION NOTES: in dimethyl carbonate, 313.15 K
READOUT NAME: solubility (mole fraction)
Lab note: jot down the number only; don't add units.

Problem: Supply measured solubility (mole fraction) of CC1=NN(c2ccccc2)C(=O)C1 in your reply.
Result: 0.0384

---

- CONDITION NOTES: in n-butyl acetate, 293.15 K
READOUT NAME: solubility (mole fraction)
Lab note: jot down the number only; don't add units.

Problem: Supply measured solubility (mole fraction) of CC1=NN(c2ccccc2)C(=O)C1 in your reply.
Result: 0.0164

---

- CONDITION NOTES: in n-butyl acetate, 318.15 K
READOUT NAME: solubility (mole fraction)

Problem: Supply measured solubility (mole fraction) of CC1=NN(c2ccccc2)C(=O)C1 in your reply.
Result: 0.037

---

- CONDITION NOTES: in MIBK, 288.15 K
READOUT NAME: solubility (mole fraction)
Lab note: jot down the number only; don't add units.

Problem: Supply measured solubility (mole fraction) of CC1=NN(c2ccccc2)C(=O)C1 in your reply.
Result: 0.0138

---

- CONDITION NOTES: in isopropyl acetate, 323.15 K
READOUT NAME: solubility (mole fraction)
Lab note: jot down the number only; don't add units.

Problem: Supply measured solubility (mole fraction) of CC1=NN(c2ccccc2)C(=O)C1 in your reply.
Result: 0.036

---

- CONDITION NOTES: in ethyl lactate, 308.15 K
READOUT NAME: solubility (mole fraction)
Lab note: jot down the number only; don't add units.

Problem: Supply measured solubility (mole fraction) of CC1=NN(c2ccccc2)C(=O)C1 in your reply.
Result: 0.0486

---

- CONDITION NOTES: in 1,2-dichloroethane, 288.15 K
READOUT NAME: solubility (mole fraction)
Lab note: jot down the number only; don't add units.

Problem: Supply measured solubility (mole fraction) of CC1=NN(c2ccccc2)C(=O)C1 in your reply.
Result: 0.0304
